Where these numbers come from: PubChem BioAssay

Kindly state growth inhibition for each of the entries shown.
assay_comment: inhibition of 3D7 malaria parasite growth – strain 3D7 (AID 2306);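 further: 0% = DMSO wells and 100% = chloroquine plus artemisinin control wells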
condition_context: P. falciparum 3D7 erythrocytic growth, LDH absorbance, 72 h; at 2 µM; hits give high values
Please respond with the number in % and leave the unit unwritten.

(Q) Look up growth inhibition: COc1ccc2nccc([C@@H](O)CN3CCC(NC(=O)C(c4ccccc4C)N4CCC(Cc5ccccc5)CC4)CC3)c2c1 (stereo partly drawn)
(A) 102

(Q) Look up growth inhibition: "CN(CC(=O)Nc1ccc(F)cc1)C(=O)c1ccc(-c2ccc(F)cc2)o1"
(A) 89

(Q) Look up growth inhibition: "CN(C)CCN(Cc1ccccc1-c1ccc(CNCCc2ccccc2)cc1)C(=O)NC1CCCCC1"
(A) 88

(Q) Look up growth inhibition: "CCCCCCn1c(Sc2ccc(C#N)c([N+](=O)[O-])c2)nnc1-c1cccs1"
(A) 97

(Q) Look up growth inhibition: "Cc1cc(NC(=O)c2cccs2)ccc1OC1CCN(Cc2ccc(C#N)cc2)CC1"
(A) 94

(Q) Look up growth inhibition: "COc1ccc(/C=C/C(=O)NCCCCCN2CCC(c3c[nH]c4ccccc34)CC2)cc1O"
(A) 91

(Q) Look up growth inhibition: O=C(Nc1ccc(C(F)(F)F)cc1)c1cccc(S(=O)(=O)NC2CCN(CC3CCCCC3)C2)c1 (stereo not drawn)
(A) 98

(Q) Look up growth inhibition: "COc1ccc2nccc([C@@H](O)CN3CCC(NCCOc4ccccc4C(F)(F)F)CC3)c2c1"
(A) 98

(Q) Look up growth inhibition: "CCn1ncc2c(NC3CCOCC3)c(CNC(=O)c3ccnn3C)c(C)nc21"
(A) 98

(Q) Look up growth inhibition: "O=C(Nc1ccc(S(=O)(=O)N2CCCC2)cc1)c1cc(-c2cccnc2)nc2ccc(Cl)cc12"
(A) 97

(Q) Look up growth inhibition: "CCN(CCCN1CCCCC1)c1cc(C)nc(Nc2ccc(C)cc2C)n1"
(A) 91

(Q) Look up growth inhibition: "COc1ccc2c(NN=Cc3ccccc3Cl)ccnc2c1"
(A) 99

(Q) Look up growth inhibition: Cc1nc(Nc2ccc(F)cc2)nc(N2CCc3ccccc3C2C)c1CO (stereo not drawn)
(A) 101

(Q) Look up growth inhibition: CCNc1cc(C(=O)N[C@@H](Cc2ccccc2)[C@H](O)CNC(C)Cc2cccc(Cl)c2)cc(N2CCCCS2(=O)=O)c1 (stereo partly drawn)
(A) 98

(Q) Look up growth inhibition: "CCNc1cc(C(=O)N[C@@H](Cc2ccccc2)[C@H](O)CNCCc2cccc3ccccc23)cc(N2CCCC2=O)c1"
(A) 86

(Q) Look up growth inhibition: O=C(/C=C/c1cccs1)NCC(NCCCNc1cc(=O)c2ccccc2[nH]1)c1cc(Br)cc(Br)c1 (stereo not drawn)
(A) 100

(Q) Look up growth inhibition: "COc1cccc(OC)c1OCCCOc1c(C)nc(N)nc1N"
(A) 97

(Q) Look up growth inhibition: "CN(C(=O)c1ccc(Br)cc1)c1ccccc1[N+](=O)[O-]"
(A) 96

(Q) Look up growth inhibition: "CCc1ccc(CN(CCCOc2cccc(CC(=O)NCc3cnc[nH]3)c2)Cc2ccc(-n3ccnc3)cc2)cc1"
(A) 99

(Q) Look up growth inhibition: "Cc1cccc2[nH]c(-c3ccc(-c4cccc(NC(=O)c5cnccc5C(F)(F)F)c4)cc3)nc12"
(A) 84

(Q) Look up growth inhibition: "N#Cc1ccc(CCNc2nccc(-c3cccc(CN4CCNCC4)c3)n2)cc1"
(A) 83

(Q) Look up growth inhibition: "O=C(c1cnn(-c2ccccc2)c1C(F)(F)F)N1CCN(c2ccnc3cc(Cl)ccc23)CC1"
(A) 89

(Q) Look up growth inhibition: "O=C(NC1CCN(Cc2ccccc2)CC1)c1ccc(-c2nc3cc(Cl)c(F)cc3[nH]2)cc1"
(A) 100

(Q) Look up growth inhibition: CCN1CCC(N(Cc2ccc(-c3ccc(C(F)(F)F)cc3)cc2)C(=O)Cn2c(CCc3cccc(F)c3F)cc(=O)c3ccccc32)C1 (stereo not drawn)
(A) 93

(Q) Look up growth inhibition: "O=C(N[C@H]1CCN(Cc2ccc(OCCN3CCNCC3)c3ccccc23)C1)c1ccc(Cl)c(Cl)c1"
(A) 100

(Q) Look up growth inhibition: COc1cc(C(=O)N2[C@@H](c3nccs3)[C@@H](C(=O)N(OC)C(C)c3ccccc3)C[C@@]2(CC(C)C)C(=O)OC(C)(C)C)ccc1C(C)(C)C (stereo partly drawn)
(A) 92

(Q) Look up growth inhibition: "CCn1c(SCc2ccc(F)cc2)nc2sc3c(c2c1=O)CCN(C)C3"
(A) 95

(Q) Look up growth inhibition: "CC1CCN(CCNC(=O)c2ccc3c(=O)n(Cc4ccc(Cl)cc4)c(=S)[nH]c3c2)CC1"
(A) 101

(Q) Look up growth inhibition: COc1cc(Nc2nccc(N3CCC(NC(=O)c4cccc(C#N)c4)C3)n2)cc(OC)c1OC (stereo not drawn)
(A) 91

(Q) Look up growth inhibition: "Oc1ccc(Cc2ccccc2)cc1CNC1CCCCC1"
(A) 96

(Q) Look up growth inhibition: "Nc1cccc(CNCc2cccc(-c3ccc(-c4nc5ccccc5[nH]4)s3)c2)c1"
(A) 101

(Q) Look up growth inhibition: "COCCOc1ccc(C(F)(F)F)cc1NC(=O)Cc1c(F)cccc1Cl"
(A) 88

(Q) Look up growth inhibition: "Nc1ncc(-c2ccc(F)cc2)cc1-c1nc2ccc(Cl)cc2[nH]1"
(A) 99

(Q) Look up growth inhibition: "Clc1ccc(-c2ccc(CNCCCN3CCCC3)cc2)cc1"
(A) 91

(Q) Look up growth inhibition: "COc1ccc2nccc([C@@H](O)CN3CCC(NC(=O)COc4nc(SCc5ccc(F)cc5)nc5c4CCC5)CC3)c2c1"
(A) 96

(Q) Look up growth inhibition: "Clc1ccc(Nc2nc3nonc3nc2Nc2ccc(Cl)c(Cl)c2)cc1"
(A) 99

(Q) Look up growth inhibition: "Cc1cccc2[nH]c(-c3ccc(-c4ccc(C(=O)NCCc5cn(C)cn5)cc4)s3)nc12"
(A) 88

(Q) Look up growth inhibition: "CC(=O)Nc1ccc(C(=O)Nc2cccc(-c3ccc(-c4nc5ccc(F)cc5[nH]4)cc3)c2)cn1"
(A) 99
